In what follows, each item is paired with its pKi for Alpha-1B adrenergic receptor (Mesocricetus auratus, UniProt P18841).
Remember, pKi is on a log scale: it is -log10 of the molar concentration.

Examples with answers:
CNCC(O)c1ccc(O)c(O)c1 (stereo not given) [EPINEPHRINE]; 5.03
NCC(O)c1ccc(O)c(O)c1 (stereo not drawn) [Noradrenaline,(+)]; 6.04

Read the next record carefully.
Query: Any idea what pKi came out for COc1ccccc1N1CCN(CCCNc2c(C)c(=O)n(C)c(=O)n2C)CC1 on Alpha-1B adrenergic receptor (Mesocricetus auratus, UniProt P18841)?
Result: 6.74
